Hello, the source for this data is ChEMBL document CHEMBL4480426, in case you need it.

Record form. Attribute: log10 of Ki. Fill in for each entry.
target: UniProt P29274; test: Displacement of [3H]MSX2 from recombinant human adenosine A2a receptor expressed in HEK293 cells
Sequence (P29274 whole entry): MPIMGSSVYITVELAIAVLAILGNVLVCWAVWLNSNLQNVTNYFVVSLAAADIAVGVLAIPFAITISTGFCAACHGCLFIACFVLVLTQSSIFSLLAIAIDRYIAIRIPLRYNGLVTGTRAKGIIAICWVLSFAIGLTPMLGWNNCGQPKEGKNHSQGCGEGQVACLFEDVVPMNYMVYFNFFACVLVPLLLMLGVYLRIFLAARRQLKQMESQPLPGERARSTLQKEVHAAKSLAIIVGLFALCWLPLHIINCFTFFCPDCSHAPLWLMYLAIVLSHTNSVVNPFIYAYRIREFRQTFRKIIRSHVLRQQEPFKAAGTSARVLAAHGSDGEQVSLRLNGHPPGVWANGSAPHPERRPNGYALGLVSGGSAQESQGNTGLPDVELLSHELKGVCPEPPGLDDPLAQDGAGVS
Friendly reminder: values = log10 of Ki, unit nM.

Below, each entry is followed by its recorded log10 of Ki result.
{"columns": ["smiles_str", "log10 of Ki"],
 "data": [
  ["COc1ccccc1CN1CCn2c1nc1c2c(=O)n(C)c(=O)n1C", 2.89],
  ["Cn1c(=O)c2c(nc3n2CCCN3Cc2ccc(Cl)cc2F)n(C)c1=O", 3.95],
  ["Cn1c(=O)c2c(nc3n2CCCCN3Cc2ccccc2Br)n(C)c1=O", 2.88]
]}

List log10 of Ki for every entry below, keeping the order given.
1. Cn1c(=O)c2c(nc3n2CCCCN3Cc2ccccc2F)n(C)c1=O
2. COc1ccccc1CN1CCCCn2c1nc1c2c(=O)n(C)c(=O)n1C

[3.03, 2.98]

List log10 of Ki for every entry below, keeping the order given.
1. Cn1c(=O)c2c(nc3n2CCCN3Cc2ccc(F)c(Br)c2)n(C)c1=O
2. Cn1c(=O)c2c(nc3n2CCN3Cc2cccc(Br)c2)n(C)c1=O

1: 3.92; 2: 2.57
